Test system: FaDu
experimentalProtocol: Antiproliferative activity against human FADU cells after 96 hrs by SRB assay
Type: functional, cell-based
pIC50: −log10 of the molar value.
Answer each item with its documented pIC50.

Example entries begin here.
C/C(=C\CC/C(C)=C/CC[C@@H]1[C@@]2(C)CCC(=O)C(C)(C)[C@@H]2CC[C@@]1(C)O)CC/C=C(\C)C(=O)OCCOC(=O)[C@@]1(C)[C@H](O)CC[C@@]2(C)[C@H]1CC[C@]1(C)[C@@H]2C(=O)C=C2[C@@H]3[C@@H](C)[C@H](C)CC[C@]3(C)CC[C@]21C: < 4.52
C/C(=C\CC/C(C)=C/CC[C@@H]1[C@@]2(C)CCC(=O)C(C)(C)[C@@H]2CC[C@@]1(C)O)CC/C=C(\C)C(=O)OCCOC(=O)/C(C)=C/CC/C(C)=C/CC/C(C)=C/CC[C@@H]1[C@@]2(C)CC[C@@H](O)C(C)(C)[C@@H]2CC[C@@]1(C)O: < 4.52

Can you give me pIC50 for all of these, one by one?
1. C=C(C)[C@@H]1CC[C@]2(C)CC[C@]3(C)[C@H](CC[C@@H]4[C@@]5(C)CC[C@@H](O)[C@](C)(C(=O)OCCCBr)[C@@H]5CC[C@]43C)[C@@H]12
2. C=C(C)[C@@H]1CC[C@]2(C(=O)OCCCCOC(=O)/C(C)=C/CC/C(C)=C/CC/C(C)=C/CC[C@@H]3[C@@]4(C)CCC(=O)C(C)(C)[C@@H]4CC[C@@]3(C)O)CC[C@]3(C)[C@H](CC[C@@H]4[C@@]5(C)CC[C@H](O)C(C)(C)[C@@H]5CC[C@]43C)[C@@H]12

Output:
1. 4.57
2. < 4.52

Can you give me pIC50 for all of these, one by one?
1. C=C(C)[C@@H]1CC[C@]2(C)CC[C@]3(C)[C@H](CC[C@@H]4[C@@]5(C)CC[C@@H](O)[C@](C)(C(=O)OCCBr)[C@@H]5CC[C@]43C)[C@@H]12
2. C/C(=C\CC/C(C)=C/CC[C@@H]1[C@@]2(C)CCC(=O)C(C)(C)[C@@H]2CC[C@@]1(C)O)CC/C=C(\C)C(=O)OCCCOC(=O)/C(C)=C/CC/C(C)=C/CC/C(C)=C/CC[C@@H]1[C@@]2(C)CCC(=O)C(C)(C)[C@@H]2CC[C@@]1(C)O
3. C/C(=C\CC/C(C)=C/CC[C@@H]1[C@@]2(C)CCC(=O)C(C)(C)[C@@H]2CC[C@@]1(C)O)CC/C=C(\C)C(=O)OCCCCOC(=O)[C@@]1(C)[C@H](O)CC[C@@]2(C)[C@H]1CC[C@]1(C)[C@@H]2C(=O)C=C2[C@@H]3[C@@H](C)[C@H](C)CC[C@]3(C)CC[C@]21C
4. C/C(=C\CC/C(C)=C/CC[C@@H]1[C@@]2(C)CCC(=O)C(C)(C)[C@@H]2CC[C@@]1(C)O)CC/C=C(\C)C(=O)OCCCCBr

Output:
[4.58, "< 4.52", "< 4.52", "< 4.52"]

src = ChEMBL document CHEMBL4138247
